# Tested on: HIF-1α–NanoLuc HCT116 cells
# ASSAY PROCEDURE: Viability (Luc): CellTiter-Glo counter screen in HIF-1α–NanoLuc cells
# Type: cell-based, human
# RUN CONDITIONS: Table S7; confirmatory screen, 1% O2, 18 h
MEASURED ENDPOINT: IC50 (µM)
All answers are understood in µM, so give the number only.

Item under review: `N#C/C(=C\c1ccc(-c2cc(Cl)ccc2Cl)o1)C(=O)Nc1cccc2ncccc12` . Reported IC50?
21.2

====

Assign Emax to each entry below.
# Test system: HIF-1α–NanoLuc
# ASSAY PROCEDURE: HIF-1α–NanoLuc reporter gene assay (qHTS primary and confirmatory screens)
# Type: cell-based, human
# RUN CONDITIONS: Homo sapiens; Table S7; primary screen; read-out: HIF-1α–NanoLuc primary Efficacy

Any idea what Emax was measured for `CCN(CC)CCNC(=O)c1c(C)[nH]c(/C=C2\C(=O)Nc3ccc(F)cc32)c1C` ?
60%

What measured Emax goes with `CNC(=O)c1cc(Oc2ccc(NC(=O)Nc3ccc(Cl)c(C(F)(F)F)c3)cc2)ccn1` ?
156%

Query: Emax; subject: `C#Cc1cccc(Nc2ncnc3cc(OCCOC)c(OCCOC)cc23)c1`
33%

Emax for CCCCC(CC)CNC(=N)NC(=N)NCCCCCCNC(=N)NC(=N)NCC(CC)CCCC (stereo not drawn) ?
126%

Looking for the measured Emax of `Cn1cnc([N+](=O)[O-])c1Sc1ncnc2nc[nH]c12` , can you help?
67%

Item under review: `COc1cc2ncnc(Nc3ccc(F)c(Cl)c3)c2cc1OCCCN1CCOCC1` . Reported Emax?
86%

Given `O=C1c2c(O)ccc(O)c2C(=O)c2c(NCCNCCO)ccc(NCCNCCO)c21` , state its recorded Emax.
80%

Please give the measured Emax for this compound: `O=C(Nc1ccc(Cl)cc1)Nc1ccc(Cl)c(C(F)(F)F)c1`
66%

For the compound `Cn1cnc2c(F)c(Nc3ccc(Br)cc3Cl)c(C(=O)NOCCO)cc21` , what Emax is on record?
62%

Entry under review: CC(=O)Oc1ccccc1C(=O)Nc1ncc([N+](=O)[O-])s1 [Nitazoxanide] . Reported Emax?
150%

Requested field: Emax. Item: `Cc1nc(Nc2ncc(C(=O)Nc3c(C)cccc3Cl)s2)cc(N2CCN(CCO)CC2)n1`
56%

// Emax lookup, key: `CCOc1ccc(Cc2nccc3cc(OCC)c(OCC)cc23)cc1OCC`
67%

Endpoint output: Emax of `Nc1nc2nc[nH]c2c(=S)[nH]1` . Value?
81%

Dear colleague, I am looking for the recorded Emax of the following compound: `O=C1NCN(c2ccccc2)C12CCN(CCCOc1ccc(F)cc1)CC2`
57%

Entry COc1c(C)c2c(c(O)c1C/C=C(\C)CCC(=O)OCCN1CCOCC1)C(=O)OC2 [Mycophenolate mofetil] has what Emax?
61%

Form field: reported Emax of `C=CC(=O)Nc1cc2c(Nc3ccc(F)c(Cl)c3)ncnc2cc1OCCCN1CCOCC1`
50%

Any idea what Emax was measured for `O=C(NOCC1CC1)c1ccc(F)c(F)c1Nc1ccc(I)cc1Cl` ?
64%

For the compound CC(=O)Oc1ccc(C2(c3ccc(OC(C)=O)cc3)C(=O)Nc3ccccc32)cc1 [Oxyphenisatin acetate] , what Emax is on record?
84%

Returns the measured Emax for the input compound. Input: `CS(=O)(=O)CCNCc1ccc(-c2ccc3ncnc(Nc4ccc(OCc5cccc(F)c5)c(Cl)c4)c3c2)o1`
56%

Fill blank: measured Emax of the compound `c1ccc(CCNc2nc(-c3ccccc3)cs2)cc1` is ____.
123%

If you can, please state the reported Emax value of `CC(=O)Oc1ccc(C(c2ccc(OC(C)=O)cc2)c2ccccn2)cc1` .
110%
